Hello, the source for this data is paper PMC10397247, in case you need it.

Target: T1, O6-bS
T1 chain: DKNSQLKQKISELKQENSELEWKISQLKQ
Experiment: two-hybrid library CCNG1;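 further: natural log of median RNA to DNA barcode read ratio; higher means stronger binding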
Observed Property: interaction score

Binder | interaction score
DKISQLKQKNSELKQEISELEWKNSQLKQ [O16-bS] | -0.0299
DENSQLEQEISELEQENSELEWKISQLKQ [O14-bS] | 0.332
DEISQLEQKISELKQENSELEWENSQLEQ [O3-bS] | -0.838

A = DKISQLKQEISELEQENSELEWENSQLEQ [O11-bS]
B = DKNSQLKQKISELKQENSELEWKISQLKQ [O6-bS]
Task: Two entries are listed, A and B . Which one carries the higher interaction score? I would appreciate it if you answered with the label of your choice.
Result: A
